Measured values drawn from ChEMBL document CHEMBL3797179 for this set.

experiment: Inhibition of bovine testes DPP9 using Ala-Pro-p-nitroanilide as substrate preincubated for 15 mins followed by substrate addition measured for 10 mins by […]; set-up: species or system Bos taurus
Range-based classes on measured IC50: low (below 200 nM), middle (200 nM to below 4000 nM), high (4000 nM or more)

Completed entries (count: 3):
### Prompt Which category fits this record: `CC[C@@H](C)[C@H](N)C(=O)N1Cc2cn[nH]c2C1`
### Response high

### Prompt Which category fits this record: `CC[C@@H](C)[C@H](N)C(=O)N1C[C@H]2C[C@H]2[C@H]1C#N`
### Response middle

### Prompt Which category fits this record: `CC[C@@H](C)[C@H](N)C(=O)N1Cc2conc2C1`
### Response high

Others:
### Prompt Which category fits this record: `C=C1CCN(C(=O)[C@@H](N)[C@H](C)CC)C1`
### Response high

### Prompt Which category fits this record: N[C@@H](CC(=O)N1CCN(C(c2ccc(F)cc2)c2ccc(F)cc2)CC1)C(=O)N1CCC(C(F)(F)F)C1 (some centres undefined)
### Response middle

### Prompt Which category fits this record: `N#C[C@@H]1C[C@H](N=[N+]=[N-])CN1C(=O)[C@@H](N)CC(=O)N1CCN(C(c2ccc(F)cc2)c2ccc(F)cc2)CC1`
### Response middle

### Prompt Which category fits this record: `N#C[C@@H]1[C@@H]2C[C@@H]2CN1C(=O)[C@@H](N)CC(=O)N1CCN(C(c2ccc(F)cc2)c2ccc(F)cc2)CC1`
### Response low

### Prompt Which category fits this record: CCC1CCN(C(=O)[C@@H](N)CC(=O)N2CCN(C(c3ccc(F)cc3)c3ccc(F)cc3)CC2)C1 (some centres undefined)
### Response middle

### Prompt Which category fits this record: `CC[C@@H](C)[C@H](N)C(=O)N1Cc2nc(C)sc2C1`
### Response high

### Prompt Which category fits this record: `C=C1C[C@@H](C#N)N(C(=O)[C@@H](N)CC(=O)N2CCN(C(c3ccc(F)cc3)c3ccc(F)cc3)CC2)C1`
### Response low

### Prompt Which category fits this record: CCC1CCN(C(=O)[C@@H](N)[C@H](C)CC)C1 (some centres undefined)
### Response high

### Prompt Which category fits this record: CC1CCN(C(=O)[C@@H](N)CC(=O)N2CCN(C(c3ccc(F)cc3)c3ccc(F)cc3)CC2)C1 (some centres undefined)
### Response low

### Prompt Which category fits this record: CC[C@@H](C)[C@H](N)C(=O)N1CCC(C)C1 (some centres undefined)
### Response high

### Prompt Which category fits this record: `C[C@H]1C[C@@H](C#N)N(C(=O)[C@@H](N)CC(=O)N2CCN(C(c3ccc(F)cc3)c3ccc(F)cc3)CC2)C1`
### Response low

### Prompt Which category fits this record: `N[C@@H](CC(=O)N1CCN(C(c2ccc(F)cc2)c2ccc(F)cc2)CC1)C(=O)N1Cc2conc2C1`
### Response middle

### Prompt Which category fits this record: `N[C@@H](CC(=O)N1CCN(C(c2ccc(F)cc2)c2ccc(F)cc2)CC1)C(=O)N1Cc2ccccc2C1`
### Response low

### Prompt Which category fits this record: `C=C1CCN(C(=O)[C@@H](N)CC(=O)N2CCN(C(c3ccc(F)cc3)c3ccc(F)cc3)CC2)C1`
### Response middle

### Prompt Which category fits this record: `N[C@@H](CC(=O)N1CCN(C(c2ccc(F)cc2)c2ccc(F)cc2)CC1)C(=O)N1Cc2cn[nH]c2C1`
### Response high

### Prompt Which category fits this record: `Cc1nc2c(s1)CN(C(=O)[C@@H](N)CC(=O)N1CCN(C(c3ccc(F)cc3)c3ccc(F)cc3)CC1)C2`
### Response high

###

Listed here: compounds with reported pIC50 for Dipeptidyl peptidase 8 (Homo sapiens, UniProt Q6V1X1).
pIC50: −log10 of the molar value.

### Prompt Bench note: what pIC50 did `CC[C@@H](C)[C@H](N)C(=O)N1Cc2cn[nH]c2C1` show?
### Response < 4.00

### Prompt Bench note: what pIC50 did `CC[C@@H](C)[C@H](N)C(=O)N1Cc2nc(C)sc2C1` show?
### Response < 4.60

Now consider the entry below.
### Prompt Bench note: what pIC50 did `N[C@@H](CC(=O)N1CCN(C(c2ccc(F)cc2)c2ccc(F)cc2)CC1)C(=O)N1Cc2cn[nH]c2C1` show?
### Response < 4.00
